biological target: Wild type FGFR2 (Homo sapiens (Human)); experiment: FGFR2 kinase assay (fluorescence-based microfluidic mobility shift assay); format: biochemical; settings: wild type FGFR2 0.06 nM, 100 μM ATP, 80 minutes at room temperature; class symbols
Sequence (P21802 22-821): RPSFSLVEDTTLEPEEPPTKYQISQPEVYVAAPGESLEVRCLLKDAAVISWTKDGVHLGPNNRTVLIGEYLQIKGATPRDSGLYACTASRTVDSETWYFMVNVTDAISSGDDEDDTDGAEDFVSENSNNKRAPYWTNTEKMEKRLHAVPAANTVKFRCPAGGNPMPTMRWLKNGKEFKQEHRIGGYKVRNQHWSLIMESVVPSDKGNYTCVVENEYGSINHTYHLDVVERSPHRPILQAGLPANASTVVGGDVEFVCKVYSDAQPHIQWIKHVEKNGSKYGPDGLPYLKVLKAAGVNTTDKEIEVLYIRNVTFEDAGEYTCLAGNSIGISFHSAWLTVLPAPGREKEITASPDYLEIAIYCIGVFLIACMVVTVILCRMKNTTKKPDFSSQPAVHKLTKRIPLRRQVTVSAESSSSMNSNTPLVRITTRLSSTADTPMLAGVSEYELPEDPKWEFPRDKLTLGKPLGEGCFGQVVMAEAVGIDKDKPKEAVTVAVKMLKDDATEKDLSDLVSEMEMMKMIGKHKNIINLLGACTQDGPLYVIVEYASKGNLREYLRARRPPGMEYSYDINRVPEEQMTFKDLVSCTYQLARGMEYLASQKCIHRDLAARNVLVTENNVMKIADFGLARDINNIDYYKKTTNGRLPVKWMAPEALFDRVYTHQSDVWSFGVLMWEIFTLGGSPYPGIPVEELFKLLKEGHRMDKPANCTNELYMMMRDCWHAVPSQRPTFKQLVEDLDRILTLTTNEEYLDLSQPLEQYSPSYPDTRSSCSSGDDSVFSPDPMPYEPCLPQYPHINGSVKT
pIC50: −log10 of the molar value.
assayMetric: pIC50

# chemSmiles, testedOn, reportedMeasurement
rows = [
    ("C=CC(=O)N1C[C@@H](n2nc(C#Cc3ccc4ncn(CC)c4c3F)c(C(N)=O)c2NC)C[C@@H]1COC", "Wild type FGFR2 (Homo sapiens (Human))", "6.00 to 7.00"),
    ("C=CC(=O)N1C[C@@H](n2nc(C#Cc3ccc4c(C)ccnc4c3)c(C(N)=O)c2NC)C[C@@H]1COC", "Wild type FGFR2 (Homo sapiens (Human))", "≥ 7.00"),
    ("[2H]C([2H])([2H])OC[C@H]1C[C@H](n2nc(C#Cc3cc4ncn(CC)c4cc3Cl)c(C(N)=O)c2NC)CN1C(=O)C=C", "Wild type FGFR2 (Homo sapiens (Human))", "≥ 7.00"),
    ("C=CC(=O)N1C[C@@H](n2nc(C#Cc3cc4c(cc3Cl)ncn4C(F)F)c(C(N)=O)c2NC)C[C@@H]1COC", "Wild type FGFR2 (Homo sapiens (Human))", "≥ 7.00"),
    ("CNc1c(C(N)=O)c(C#Cc2cc3ncn(C4CC4)c3cc2F)nn1C1CN(C(=O)/C=C/CN(C)C)C1", "Wild type FGFR2 (Homo sapiens (Human))", "6.00 to 7.00"),
    ("C=CC(=O)N1CC[C@H](n2nc(C#Cc3cc4ncn(C)c4cc3F)c(C(N)=O)c2NC)C1", "Wild type FGFR2 (Homo sapiens (Human))", "≥ 7.00"),
    ("C=C(F)C(=O)N1CC(n2nc(C#Cc3cc4ncn(C5CC5)c4cc3F)c(C(N)=O)c2NC)C1", "Wild type FGFR2 (Homo sapiens (Human))", "≥ 7.00"),
]

###

biological target: UniProt:P21802; test: FGFR2 kinase assay (fluorescence-based microfluidic mobility shift assay); format: biochemical
pIC50: −log10 of the molar value.
Readings of pIC50 for the listed compounds

# compound, pIC50
records = [
    ("C=CC(=O)N1C[C@@H](n2nc(C#Cc3cc4nccc(C)c4cc3Cl)c(C(N)=O)c2NC)C[C@@H]1COC [Example 281]", "> 7.00"),
    ("C#CC(=O)N1C[C@@H](n2nc(C#Cc3cc4ncn(C5CC5)c4cc3F)c(C(N)=O)c2NC)C[C@@H]1CO [Example 198]", "> 7.00"),
    ("C=CC(=O)N1C[C@@H](n2nc(C#Cc3cc4nccc(C)c4cc3F)c(C(N)=O)c2NC)C[C@@H]1COC [Example 274]", "> 7.00"),
]

###

molecular target: Wild type FGFR2 (Homo sapiens (Human)); assay: FGFR2 kinase assay (fluorescence-based microfluidic mobility shift assay); format: biochemical; conditions: wild type FGFR2 0.06 nM, 100 μM ATP, 80 minutes at room temperature; class symbols
Recorded IC50 for the following molecules

# chemSmiles, IC50
rows = [
    ("C=CC(=O)N1C[C@@H](n2nc(C#Cc3ccn4nccc4c3)c(C(N)=O)c2NC)C[C@@H]1COC", "≤ 100 nM"),
    ("C=CC(=O)N1C[C@@H](n2nc(C#Cc3c(F)cc4c(ncn4CC)c3F)c(C(N)=O)c2NCC2CC2)C[C@@H]1COC", "≤ 100 nM"),
    ("C=CC(=O)N1C[C@@H](n2nc(C#Cc3cccc4c3cnn4C3CC3)c(C(N)=O)c2NC)C[C@@H]1COC", "≤ 100 nM"),
    ("C=CC(=O)N1C[C@@H](n2nc(C#Cc3c(F)cc4c(ncn4CC)c3F)c(C(N)=O)c2NC)C[C@@H]1COC(F)(F)F", "≤ 100 nM"),
    ("C=CC(=O)N1C[C@@H](n2nc(C#Cc3ccc4c(n3)nc(C)n4CC)c(C(N)=O)c2NC)C[C@@H]1COC", "100 to 1000 nM"),
    ("C=CC(=O)N1C[C@@H](n2nc(C#Cc3cc4ncn(C5CC5)c4cc3Cl)c(C(N)=O)c2N)C[C@@H]1CO", "≤ 100 nM"),
]
